Quick reference for remaining [A] among some molecules
TEST_SUMMARY: Colorimetric alkylation rate constant assay with thiol N1
Assay type: physicochemical
TEST_SETTINGS: Replicate 3; time 576 sec; N1 from calibration curve (N1 in uM); in µM
MEASURED_ENDPOINT: remaining [A]

molecule="C=CS(=O)(=O)Nc1cc2cc(C(=O)CCC(=O)O)sc2cc1OC [Compound E1]" measured_result=37.5866
molecule="COc1cc2sc(C(=O)CCC(=O)O)cc2cc1NC(=O)CCl [Compound E2]" measured_result=17.4849
molecule="O=C(CCl)Nc1ccccc1 [Compound C2]" measured_result=81.6859
molecule="O=C(CCl)Nc1ccccc1C(=O)O [Compound C5]" measured_result=89.9918
molecule="O=C(CCl)Nc1ccc(F)cc1 [Compound C3]" measured_result=80.3332
molecule="O=C(CCl)N1CCOCC1 [Compound C4]" measured_result=79.3863
